Tested on: Pseudomonas aeruginosa PAO1
assay-details: ≥ marks a high value that may be exact or a test limit, other limits are often not marked, values filed in µg/mL are converted to µM
measured-endpoint: MIC (µM)
Numbers only, in µM.

According to the records, this compound CC[C@H](C)[C@H](NC(=O)[C@H](CCCCN)NC(=O)[C@H](CCCCN)NC(=O)[C@H](Cc1ccccc1)NC(=O)[C@H](CCCCN)NC(=O)[C@H](CCCCN)NC(=O)[C@H](Cc1c[nH]c2ccccc12)NC(=O)[C@@H](N)CCCCN)C(=O)NCC(=O)N[C@@H](CCCCN)C(=O)N[C@H](C(=O)N[C@@H](CC(C)C)C(=O)N[C@@H](CCCCN)C(=O)N[C@H](C(=O)N[C@@H](CC(C)C)C(=O)O)C(C)C)C(C)C displays MIC of 0.707

Every entry's value here was drawn from DBAASP.
